# maps each entry to its AC50
# experimental-target: Voltage-gated inwardly rectifying potassium channel KCNH2 (Homo sapiens, UniProt Q12809);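 also: confirmatory quantitative high-throughput screen measuring inhibition of hERG channel activity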
# Sequence (Q12809 whole entry): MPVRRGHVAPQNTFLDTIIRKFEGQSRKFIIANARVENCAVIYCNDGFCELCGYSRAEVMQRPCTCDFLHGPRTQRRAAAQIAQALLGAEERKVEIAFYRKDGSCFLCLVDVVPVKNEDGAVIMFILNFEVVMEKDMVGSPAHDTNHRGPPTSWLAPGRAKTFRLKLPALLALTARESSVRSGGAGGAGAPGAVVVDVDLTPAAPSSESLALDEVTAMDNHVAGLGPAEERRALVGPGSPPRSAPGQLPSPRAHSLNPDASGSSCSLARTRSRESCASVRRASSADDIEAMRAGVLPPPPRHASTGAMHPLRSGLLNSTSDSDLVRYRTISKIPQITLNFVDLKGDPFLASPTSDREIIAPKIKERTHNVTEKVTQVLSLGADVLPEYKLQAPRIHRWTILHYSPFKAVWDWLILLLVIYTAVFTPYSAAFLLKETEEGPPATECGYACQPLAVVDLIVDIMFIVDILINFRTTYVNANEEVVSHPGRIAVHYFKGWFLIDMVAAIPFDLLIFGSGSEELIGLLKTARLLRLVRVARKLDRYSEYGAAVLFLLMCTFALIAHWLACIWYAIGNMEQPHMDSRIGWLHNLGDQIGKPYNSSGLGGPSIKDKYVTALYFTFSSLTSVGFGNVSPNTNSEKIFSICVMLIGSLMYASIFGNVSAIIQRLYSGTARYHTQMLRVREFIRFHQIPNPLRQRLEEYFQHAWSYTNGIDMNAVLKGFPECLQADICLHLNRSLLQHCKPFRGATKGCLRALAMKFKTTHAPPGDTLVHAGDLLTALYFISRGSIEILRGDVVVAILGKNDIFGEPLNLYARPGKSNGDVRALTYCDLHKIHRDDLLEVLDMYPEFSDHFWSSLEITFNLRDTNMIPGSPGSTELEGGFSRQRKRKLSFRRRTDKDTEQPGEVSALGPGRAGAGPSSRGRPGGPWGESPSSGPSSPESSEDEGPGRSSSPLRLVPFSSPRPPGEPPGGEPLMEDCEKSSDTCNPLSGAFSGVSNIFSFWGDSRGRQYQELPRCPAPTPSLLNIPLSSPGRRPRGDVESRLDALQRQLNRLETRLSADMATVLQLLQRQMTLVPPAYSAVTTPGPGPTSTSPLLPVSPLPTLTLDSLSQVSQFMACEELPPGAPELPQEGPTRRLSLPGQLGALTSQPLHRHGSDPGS
# conditions: Potency

// known answers, use as guide
molecule	AC50
CN1CCN(c2ccc3ccccc3n2)CC1	35.5 µM (inconclusive)
c1ccc(CSCc2ccccc2)cc1	31.6 µM (inconclusive)
C[C@H](Cc1ccc(O)c(O)c1)[C@@H](C)Cc1ccc(O)c(O)c1 [MASOPROCOL]	35.5 µM (inconclusive)
CCCCC(CC)CNCC(CC)CCCC (stereo not given)	10 µM (inconclusive)

Let us examine a further case.
Briefly, AC50 measured for O=C(O)/C=C/c1ccc(/C=C/C(=O)O)cc1 : 79.4 µM (inconclusive)

====

Values of AC50 reported for Cytochrome P450 2D6 (Homo sapiens) appear below.

molecule	reported-measurement
CCC(C)(C(=O)NC1CCCC1)N(CC1CCCO1)C(=O)c1ccc2c(c1)OCO2 (stereo not given)	35.5 µM (inconclusive)
C=CCNc1nc(-c2ccc(Cl)cc2)cs1	25.1 µM (inconclusive)
Cc1ccc(/C=C/C(=O)c2nc3ccccc3[nH]2)cc1	28.2 µM (inconclusive)
Cc1nnc(-c2cccc(Br)c2)c2cn(-c3ccc(Br)cc3)nc12	12.6 µM (inconclusive)
Cc1ccc(CS(=O)(=O)CCC(=O)NCCN2CCCC2)cc1	0.1 µM (inconclusive)

Kindly note: Cytochrome P450 2D6 (Homo sapiens), C[C@H](Cc1ccc(O)c(O)c1)[C@@H](C)Cc1ccc(O)c(O)c1 , AC50 value reported: 39.8 µM (inconclusive)

Kindly note: Cytochrome P450 2D6 (Homo sapiens), NCCCN1CCN(c2ccccc2)CC1 , AC50 value reported: 3.16 µM (inconclusive)

Kindly note: Cytochrome P450 2D6 (Homo sapiens), c1cncc(CNc2ncnc3ccc(-c4ccoc4)cc23)c1 , AC50 value reported: 25.1 µM (inconclusive)

Kindly note: Cytochrome P450 2D6 (Homo sapiens), O=C1Oc2ccccc2C(=O)/C1=C\N1C(=O)N/C(=C\c2ccccc2O)C1=O , AC50 value reported: 3.98 µM (inconclusive)

Kindly note: Cytochrome P450 2D6 (Homo sapiens), O=c1c2c(-c3cccs3)csc2ncn1-c1ccc(Br)cc1 , AC50 value reported: 3.55 µM (inconclusive)

Kindly note: Cytochrome P450 2D6 (Homo sapiens), O=C(c1cccc(F)c1)N1CCC2(CC1)CCN(c1ccc(-c3ccccc3)cc1)CC2 , AC50 value reported: 10 µM (inconclusive)

Kindly note: Cytochrome P450 2D6 (Homo sapiens), Cc1cccc(CNc2cc(-c3ccccc3CN(C)C)ncn2)c1 , AC50 value reported: 20 µM (inconclusive)

Kindly note: Cytochrome P450 2D6 (Homo sapiens), C=CCn1c(SC(C)C(=O)NCc2ccc3c(c2)OCO3)nc2scc(-c3ccccc3)c2c1=O (stereo not given) , AC50 value reported: 3.16 µM (inconclusive)

Kindly note: Cytochrome P450 2D6 (Homo sapiens), FC(F)(F)c1ccccc1-c1nccc(NCCN2CCOCC2)n1 , AC50 value reported: 12.6 µM (inconclusive)

Kindly note: Cytochrome P450 2D6 (Homo sapiens), CCCS(=O)(=O)N1CCCC(C(=O)NCCCN2CCN(c3ccc(F)cc3)CC2)C1 (stereo not given) , AC50 value reported: 5.01 µM (inconclusive)

====

# maps each entry to its EC50
# experimental-target: Corticotropin-releasing factor receptor 2/Corticotropin-releasing factor-binding protein (Homo sapiens, UniProt P24387+Q13324)
# Sequence (Q13324 whole entry): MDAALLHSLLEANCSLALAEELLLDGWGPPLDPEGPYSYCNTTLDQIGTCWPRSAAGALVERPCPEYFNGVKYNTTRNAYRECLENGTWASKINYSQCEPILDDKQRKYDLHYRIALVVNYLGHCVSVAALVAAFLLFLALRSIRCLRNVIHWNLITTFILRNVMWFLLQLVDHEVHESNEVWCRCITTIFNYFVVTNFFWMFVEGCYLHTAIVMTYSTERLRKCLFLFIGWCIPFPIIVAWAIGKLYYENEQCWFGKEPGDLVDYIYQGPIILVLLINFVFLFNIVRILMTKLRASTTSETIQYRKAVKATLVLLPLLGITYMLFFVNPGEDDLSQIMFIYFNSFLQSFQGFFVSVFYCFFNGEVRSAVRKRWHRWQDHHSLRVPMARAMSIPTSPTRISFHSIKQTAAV
# Sequence (P24387 whole entry): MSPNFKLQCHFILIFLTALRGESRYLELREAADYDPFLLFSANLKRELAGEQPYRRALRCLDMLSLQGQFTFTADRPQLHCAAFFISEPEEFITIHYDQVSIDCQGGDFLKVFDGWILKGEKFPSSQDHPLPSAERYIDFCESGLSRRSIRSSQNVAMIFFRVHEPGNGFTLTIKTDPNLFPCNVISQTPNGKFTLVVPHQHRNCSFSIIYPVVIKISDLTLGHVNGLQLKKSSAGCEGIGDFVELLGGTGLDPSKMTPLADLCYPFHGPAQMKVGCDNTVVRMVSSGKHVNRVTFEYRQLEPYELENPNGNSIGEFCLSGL
# method-description: activators of CRF receptor 2 with binding protein – uHTS hits, confirmation (AID 602473)
# Type: functional
# conditions: read-out: EC50_Mean
The source made the active and inactive calls.

// known answers, use as guide
molecule	recorded-endpoint	reported-measurement
CCOC(=O)CSc1nc(N2CCOCC2)c2c(c1C#N)CC(C)(C)N(C)C2	EC50	> 53 µM (inactive)
O=C(Nc1ncc(S(=O)(=O)c2ccc([N+](=O)[O-])cc2)s1)c1ccccc1F	EC50	4.81 µM (active)
Cc1cc(NS(=O)(=O)c2ccc(NC(=O)c3cccc(OC(F)F)c3)cc2)nc(C)n1	EC50	> 53 µM (inactive)
Cc1cccc(NC(=O)c2cccc([N+](=O)[O-])c2O)c1C	EC50	> 53 µM (inactive)
CCOC(=O)NC(O)C(=O)c1cccs1 (centres undefined)	EC50	> 53 µM (inactive)

Briefly, EC50 measured for O=[N+]([O-])c1ccc(-[n+]2c(-c3ccccc3)cc(-c3ccccc3)cc2-c2ccccc2)cc1.[O-][Cl+3]([O-])([O-])[O-] : 5.02 µM (active)

Briefly, EC50 measured for Clc1ccc(-c2ccc(/C=N/c3ccc(N4CCOCC4)cc3)o2)c(Cl)c1 : 6.68 µM (active)

Briefly, EC50 measured for COc1c(Cl)cc(Cl)cc1CNc1ccc(S(N)(=O)=O)cc1 : > 53 µM (inactive)

Briefly, EC50 measured for Cc1ccc(S(=O)(=O)N(CC(=O)NCc2ccco2)Cc2ccccc2F)cc1 : > 53 µM (inactive)

Briefly, EC50 measured for CC(C)(C)c1ccc(SCCc2cccnc2)cc1 : > 53 µM (inactive)

Briefly, EC50 measured for CCCn1nc(C(=O)Nc2ccc3nc(C)sc3c2)c2ccccc2c1=O : > 53 µM (inactive)

Briefly, EC50 measured for Cc1[nH]n(CCC#N)c(=O)c1CC(=O)N1CCN(c2ccccc2)CC1 : > 53 µM (inactive)

====

# maps each entry to its AC50
# experimental-target: Cytochrome P450 2C19 (Homo sapiens, UniProt P33261)
# Sequence (P33261 whole entry): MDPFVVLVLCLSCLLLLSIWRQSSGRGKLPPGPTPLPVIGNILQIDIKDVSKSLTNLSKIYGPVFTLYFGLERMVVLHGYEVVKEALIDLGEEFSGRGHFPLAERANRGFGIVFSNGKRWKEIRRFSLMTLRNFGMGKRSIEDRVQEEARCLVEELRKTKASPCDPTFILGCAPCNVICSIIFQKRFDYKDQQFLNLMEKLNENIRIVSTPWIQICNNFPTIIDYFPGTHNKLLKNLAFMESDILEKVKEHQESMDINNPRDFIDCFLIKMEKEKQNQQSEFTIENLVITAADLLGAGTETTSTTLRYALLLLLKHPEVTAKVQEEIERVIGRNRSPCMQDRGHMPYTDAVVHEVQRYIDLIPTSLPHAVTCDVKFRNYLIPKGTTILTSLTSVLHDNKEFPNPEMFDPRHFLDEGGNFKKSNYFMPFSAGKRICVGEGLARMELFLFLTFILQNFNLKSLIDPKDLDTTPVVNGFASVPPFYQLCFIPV
# method-description: Cytochrome panel assay with activity outcomes. Panel member name: p450-cyp2c19 Compounds with AC50 equal or less than 10 uM are considered active
# Assay type: functional
# conditions: read-out: AC50

// known answers, use as guide
compound	reported-measurement
CCc1nnc(NC(=O)CSc2nc(C3CCCCC3)nc3ccccc23)s1	5.01 µM (inconclusive)
CCCNC(=O)OC[C@@H]1O[C@H](CCO/N=C(\C)CCC(=O)OC[C@@H]2O[C@H](c3ccccc3)C=C[C@@H]2Oc2ccc(OC)cc2)C=C[C@@H]1Oc1ccc(OC)cc1	0.0794 µM (inconclusive)
CCC(C)(C(=O)NC1CCCC1)N(CC1CCCO1)C(=O)c1ccc2c(c1)OCO2 (centres undefined)	5.62 µM (inconclusive)
O=C1Oc2ccccc2C(=O)/C1=C\N1C(=O)N/C(=C\c2ccccc2O)C1=O	6.31 µM (inconclusive)
N#Cc1ccc(-c2ccc(F)cc2)nc1Sc1ccccc1	5.01 µM (inconclusive)

Briefly, AC50 measured for O=C(Nc1ccccc1)N1CCOCC1 : 31.6 µM (inconclusive)

Briefly, AC50 measured for Cc1cccc2c1OCC/C2=N\NC(=O)COc1ccccc1Cl : 0.708 µM (inconclusive)

Briefly, AC50 measured for COc1ccc(O[C@H]2C=C[C@@H](c3ccccc3)O[C@H]2CO/N=C(/C)CCC(=O)OC[C@@H]2O[C@H](C#Cc3ccccc3)C=C[C@@H]2Oc2ccc(C)cc2)cc1 : 0.126 µM (inconclusive)

Briefly, AC50 measured for O=c1c2c(-c3cccs3)csc2ncn1-c1ccc(Br)cc1 : 2.24 µM (inconclusive)

====

# maps each entry to its AC50
# experimental-target: UniProt:P9WMR3
# method-description: DnaB intein splicing inhibitors, dose response, biochemical, cell-free fluorescence (AID 449749)
# Assay type: functional
The source made the active and inactive calls.

// known answers, use as guide
compound	experimental-target	reported-measurement
Cc1cccc(C)c1NC(=O)c1nc(S(=O)(=O)Cc2ccccc2)ncc1Cl	UniProt:P9WMR3	4.34 µM (active)
Cc1ccccc1CS(=O)(=O)c1nnc([C@H](CC(C)C)NC(=O)OC(C)(C)C)o1	UniProt:P9WMR3	93.7 µM (active)
Cc1ccc2c(c1)-c1c(ssc1=S)C(C)(C)N2C(=O)CSc1nncn1C	UniProt:P9WMR3	6.63 µM (active)
O=C(CCCN1C(=O)/C(=C\c2ccccc2)SC1=S)Nc1ccc(O)cc1	UniProt:P9WMR3	39 µM (active)

Let us examine a further case.
Briefly, AC50 measured for Cc1nn(-c2ccccc2)c2c1C(c1ccncc1)C(C#N)=C(N)O2 (stereo not given) : 12.7 µM (active)

====

# maps each entry to its EC50
# method-description: cytotoxicity toward DRD oncogenic fibroblasts, dose response, cell-based, non-viral oncogenic, luminescence (AID 1934)
# Format: functional
# conditions: Homo sapiens
Active and inactive are the calls of the source.

molecule	reported-measurement
CCN(CC)c1ccc(/C=N/NC(=O)c2nnn(-c3nonc3N)c2C(C)C)c(O)c1	8.09 µM (inconclusive)
CN[C@H]1CCc2cc(OC)c(OC)c(OC)c2-c2ccc(N(C)CC(OC)OC)c(=O)cc21	2.86 µM (active)
Oc1cccc(C(Nc2nccs2)c2ccc3cccnc3c2O)c1 (centres undefined)	6.12 µM (active)

Let us examine a further case.
Briefly, EC50 measured for N=c1c2c(n(Cc3ccc(Cl)c(Cl)c3)c3c1CCC3)CCCC2 : 28.9 µM (inconclusive)

====

# experimental-target: Trace amine-associated receptor 1 (Homo sapiens, UniProt Q96RJ0);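 also: inhibition of calcium response to PEA at EC80 in Galpha16 coupled cells measured by Fluo-8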
# Sequence (Q96RJ0 whole entry): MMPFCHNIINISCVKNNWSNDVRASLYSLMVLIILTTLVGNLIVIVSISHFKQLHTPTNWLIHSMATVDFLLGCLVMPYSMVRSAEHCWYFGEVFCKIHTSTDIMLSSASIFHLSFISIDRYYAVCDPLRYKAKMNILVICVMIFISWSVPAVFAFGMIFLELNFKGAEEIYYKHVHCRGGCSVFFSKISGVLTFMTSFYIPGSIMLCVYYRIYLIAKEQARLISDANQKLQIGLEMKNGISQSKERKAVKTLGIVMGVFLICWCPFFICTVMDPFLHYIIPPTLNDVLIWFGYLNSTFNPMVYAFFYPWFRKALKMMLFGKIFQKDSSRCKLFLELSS
# method-description: Counterscreen for agonists of the human trace amine associated receptor 1 (hTAAR1): Fluorescence-based cell-based high throughput dose response assay to identify hTAAR1 agonist that also desensitize TAAR1 receptor response.
# Type: functional
Activity calls are given as the source filed them.
recorded-endpoint: IC50

// known answers, use as guide
molecule	recorded-endpoint	reported-measurement
COc1ncnc2c1ncn2CCCNCC(C)c1ccccc1 (centres undefined)	IC50	12.8 µM (inactive)
COc1ccc(Nc2nc(N3CCCC3)c3ccccc3n2)cc1	IC50	7.19 µM (active)
COc1cc(CNCCc2ccccc2F)ccc1OCc1ccc(Cl)nc1	IC50	9.47 µM (active)

Briefly, IC50 measured for O=C(N[C@H](C(=O)N1CCC[C@H]1C(=O)NCCc1ccccc1Cl)C1CCCCC1)C1CC1 : 8.99 µM (active)
